The values you see were collected from patent US20020177594A1.

test_readout: melting point

# count of solved cases: 5
>>> value_reported("CNC(=O)C(=O)CCCCCCc1csc(-c2ccc(Cl)cc2)n1")
"77 to 81 °C"
>>> value_reported("CNC(=O)C(=O)CCCCCCc1cnc(-c2ccc(Br)cc2)o1")
"90 to 92 °C"
>>> value_reported("O=C(NCCCCCC(=O)c1ncco1)c1cc2ccccc2[nH]1")
"176 to 179 °C"
>>> value_reported("O=C(NCCCCCCC(=O)c1ncco1)c1cc2ccccc2[nH]1")
"153 to 156 °C"
>>> value_reported("O=C(NCCCCCC(=O)C(F)(F)F)OCC1c2ccccc2-c2ccccc21")
"83 to 88 °C"

Data request: Return reported melting point; argument: O=C(CCCCCCSc1ccccc1)c1ncco1
Data returned: 39 to 40 °C

Data request: Return reported melting point; argument: O=C(CCCCCCS(=O)(=O)c1ccc2ccccc2c1)c1ncco1
Data returned: 75 to 76 °C

Data request: Return reported melting point; argument: CNC(=O)C(=O)CCCCCCSc1nc2ccccc2s1
Data returned: 83 to 84 °C
